Value source: ChEMBL document CHEMBL5724914

- Settings: human gut metagenome, 24 h, 2 µM; further: call rule not given here
Quantity kind: Bacterial Biotransformation

So what's the measured Bacterial Biotransformation for this one? CN1C[C@H](C(=O)N[C@]2(C)O[C@@]3(O)[C@@H]4CCCN4C(=O)[C@H](Cc4ccccc4)N3C2=O)C=C2c3cccc4[nH]cc(c34)C[C@H]21.CN1C[C@H](C(=O)N[C@]2(C)O[C@@]3(O)[C@@H]4CCCN4C(=O)[C@H](Cc4ccccc4)N3C2=O)C=C2c3cccc4[nH]cc(c34)C[C@H]21.O=C(O)C(O)C(O)C(=O)O [ERGOTAMINE TARTRATE]
Compound metabolized

Any idea what its Bacterial Biotransformation is? The compound is OC(CCN1CCCCC1)(c1ccccc1)C1CCCCC1 (configuration not stated)
Compound metabolized

* * *

- Settings: human gut metagenome, 24 h, 2 µM
Quantity kind: Bacterial Biotransformation

Looking for the measured Bacterial Biotransformation of Cc1ccc(S(=O)(=O)NC(=O)NN2CCCCCC2)cc1 [TOLAZAMIDE] , can you help?
Compound NOT metabolized

Look up Bacterial Biotransformation: CC(C)NCC(O)COc1ccc(CCOCC2CC2)cc1 (stereo not drawn)
Compound NOT metabolized

I am curious: what Bacterial Biotransformation value has been reported for NS(=O)(=O)c1cc2c(cc1Cl)N=C(CSCc1ccccc1)NS2(=O)=O [BENZTHIAZIDE] ?
Compound NOT metabolized

# lookup: Bacterial Biotransformation of CCCCCCOC(=O)/N=C(/N)c1ccc(NCc2nc3cc(C(=O)N(CCC(=O)OCC)c4ccccn4)ccc3n2C)cc1.CS(=O)(=O)O [DABIGATRAN ETEXILATE MESYLATE]
Compound NOT metabolized

Give its Bacterial Biotransformation value. Item: COC(=O)C1=C(C)NC(C)=C(C(=O)OC(C)C)C1c1cccc2nonc12 (stereo not drawn)
Compound metabolized

---
Find the recorded Bacterial Biotransformation belonging to CN/C(=N/CCSCc1nc[nH]c1C)NC#N and report it.
Compound NOT metabolized

I'd like to know its Bacterial Biotransformation. The molecule in question is CN(C)C(=O)C(CCN1CCC(O)(c2ccc(Cl)cc2)CC1)(c1ccccc1)c1ccccc1 [LOPERAMIDE]
Compound metabolized

Bench note: what Bacterial Biotransformation did COc1ccc2[nH]c([S+]([O-])Cc3ncc(C)c(OC)c3C)nc2c1 (stereo not drawn) show?
Compound metabolized

* * *

- Assay remarks: The drug is tested on Z-024 corresponding to pig gut metagenome with ENA study accession number: PRJEB37062 and ENA sample accession number: ERS12561823 for biotransformation under anaerobic condition. The drug concentrations were measured over 9 timepoints collected between 0 and 24 hours of incubation by liquid-chromatography-coupled mass spectrometry (LC–MS)
- Settings: 2 µM
Quantity kind: Bacterial Biotransformation

Use the examples below as a reference point.
Name the reported Bacterial Biotransformation value associated with the molecule OCCOCCN1CCN(C2=Nc3ccccc3Sc3ccccc32)CC1
Compound metabolized

Requested read-out: Bacterial Biotransformation. Entry: O=c1n(CCCN2CCN(c3cccc(Cl)c3)CC2)nc2ccccn12
Compound metabolized

Recorded Bacterial Biotransformation of CCOC(=O)[C@H](CCc1ccccc1)N[C@@H](C)C(=O)N1[C@H](C(=O)O)C[C@H]2CCCC[C@@H]21 , please.
Compound metabolized

Can you look up the measured Bacterial Biotransformation of CCN(CC)CC#CCOC(=O)C(O)(c1ccccc1)C1CCCCC1.Cl (centres undefined) [OXYBUTYNIN CHLORIDE] for me?
Compound metabolized

Which Bacterial Biotransformation value belongs to COc1ccccc1N1CCN(CC(O)COc2cccc3ccccc23)CC1 (centres undefined) ?
Compound metabolized

Others:
Which Bacterial Biotransformation is reported for this molecule? CN1CC(=O)N2[C@H](c3ccc4c(c3)OCO4)c3[nH]c4ccccc4c3C[C@@H]2C1=O
Compound metabolized

// lookup Bacterial Biotransformation for CN1CCc2cccc3c2[C@H]1Cc1ccc(O)c(O)c1-3
Compound metabolized

Recorded Bacterial Biotransformation of Nc1c2c(nc3ccccc13)CCCC2 , please.
Compound NOT metabolized

Data request, read-out Bacterial Biotransformation, for CC(C)OC(=O)C(C)(C)Oc1ccc(C(=O)c2ccc(Cl)cc2)cc1 [FENOFIBRATE]
Compound NOT metabolized
